- Test system: MDA-MB-231 human breast adenocarcinoma cell line
- Experimental Protocol: cells
- Condition Parameters: Homo sapiens, MDA-MB-231, 72 h
Form field: pIC50 (one value per entry).
Field pIC50 (float): negative decimal logarithm of the concentration in molar.

Sample records with pIC50:
[
  {
    "Molecule": "Nc1ccn([C@@H]2O[C@H](CO)[C@@H](O)[C@@H]2O)c(=O)n1",
    "Obs Value": 5.02
  },
  {
    "Molecule": "O=NN(CCCl)C(=O)NCCCl",
    "Obs Value": 3.05
  },
  {
    "Molecule": "Nc1ccn([C@@H]2O[C@H](CO)[C@@H](O)C2(F)F)c(=O)n1",
    "Obs Value": 8.07
  },
  {
    "Molecule": "CC(=O)O[C@H]1C(=O)[C@@]2(C)[C@H]([C@H](OC(=O)c3ccccc3)[C@]3(O)C[C@H](OC(=O)[C@H](O)[C@@H](NC(=O)c4ccccc4)c4ccccc4)C(C)=C1C3(C)C)[C@]1(OC(C)=O)CO[C@@H]1C[C@@H]2O",
    "Obs Value": 8.07
  },
  {
    "Molecule": "CC(=O)O[C@@]12CO[C@@H]1C[C@H](O)[C@@]1(C)C(=O)[C@H](O)C3=C(C)[C@@H](OC(=O)[C@H](O)[C@@H](NC(=O)OC(C)(C)C)c4ccccc4)C[C@@](O)([C@@H](OC(=O)c4ccccc4)[C@H]21)C3(C)C",
    "Obs Value": 8.60
  }
]

Challenge: Consider the molecule COc1cc([C@@H]2c3cc4c(cc3[C@@H](O[C@@H]3O[C@@H]5CO[C@@H](C)O[C@H]5[C@H](O)[C@H]3O)[C@H]3COC(=O)[C@H]23)OCO4)cc(OC)c1O [Etoposide, etoposide] and give its measured pIC50.
Response given: 5.32

Challenge: Suppose we examine the molecule O=P1(N(CCCl)CCCl)NCCCO1 (stereo not drawn) [Cyclophosphamide, cyclophosphamide] ; what pIC50 value has been reported?
Response given: 3.00

Challenge: # pIC50 lookup, item COc1ccc2[nH]c3c(c2c1)CCN[C@]31CS[C@@H]2c3c(OC(C)=O)c(C)c4c(c3[C@H](COC1=O)N1[C@@H]2[C@H]2c3c(cc(C)c(OC)c3O)C[C@@H]([C@@H]1O)N2C)OCO4
Response given: 8.46

Challenge: Could you tell me which pIC50 is on file for CC[C@@]1(O)C(=O)OCc2c1cc1n(c2=O)Cc2cc3c(CN(C)C)c(O)ccc3nc2-1 ?
Response given: 6.78

----------
- System: U87-MG human glioblastoma cell line
- Experimental Protocol: cells
Metric Name: IC50 (µM)
Entry rule: numbers only, all in µM.

Challenge: What value of IC50 on U87-MG human glioblastoma cell line does O=C1[O][Pt]2([NH][C@@H]3CCCC[C@H]3[NH]2)[O]C1=O have?
Response given: 190

----------
- Tested on: HepG2 human hepatocellular liver carcinoma cell line
- Experimental Protocol: MTT cytotoxicity assay in HepG2 cells: IC50 of single agents and combinations with PM01183
- Type: cell-based
- Condition Parameters: read-out: IC50
Metric Name: IC50 (µM)
Supply the numeric figure in µM, leaving out any unit text.

Challenge: // returns reported IC50 for input O=C1[O][Pt]2([NH][C@@H]3CCCC[C@H]3[NH]2)[O]C1=O
Response given: 28

Where do these numbers come from? They come from patent US11590129B2.
